Test system: MOLM14
ASSAY: cell viability relative to vehicle control; higher = less cytotoxic;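 note: after 48 h exposure read by CellTiter-Glo luminescence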
CONDITION: 10 µM; SRSF2 genotype: SRSF2 P95H/wt
Structures can show the parent of a compound that is named as a salt.
Recorded cell viability values for a group of molecules are listed next.
Please make sure the unit comes right after the number.

Return the recorded cell viability value; entry: Clc1ccc2nsnc2c1NC1=NCCN1 [Tizanidine HCl]
103%

Return the recorded cell viability value; entry: CN1CC[C@@H](c2c(O)cc(O)c3c(=O)cc(-c4ccccc4Cl)oc23)[C@@H]1CO
2.24%

Return the recorded cell viability value; entry: COc1cc(N2CCN(C)CC2)ccc1Nc1ncc2c(n1)N(C)c1ccccc1C(=O)N2
78.1%

Return the recorded cell viability value; entry: NS(=O)(=O)c1cc2c(cc1Cl)N=CNS2(=O)=O [Chlorothiazide]
102%

Return the recorded cell viability value; entry: O=S(=O)(c1ccccc1)N(CC(F)(F)F)c1ccc(C(O)(C(F)(F)F)C(F)(F)F)cc1
62.3%

Return the recorded cell viability value; entry: CC(=O)OC1C[C@H](C)CCC1C(C)C (stereo partly drawn) [(1R)-(-)-Menthyl acetate]
98.5%

Return the recorded cell viability value; entry: CCOC(=O)c1ncn2c1CN(C)C(=O)c1cc(F)ccc1-2
106%

Return the recorded cell viability value; entry: COc1ccc(N2C(=O)/C(=C\c3ccc([N+](=O)[O-])s3)SC2=S)cc1
36.7%

Return the recorded cell viability value; entry: Cc1cccc(Oc2cnc(=O)[nH]c2)c1
100%

Return the recorded cell viability value; entry: CC1=CC(=O)NS(=O)(=O)O1
98.9%

---

System: MOLM14
ASSAY: cell viability relative to vehicle control; higher = less cytotoxic
CONDITION: 10 µM; SRSF2 genotype: SRSF2 P95H/wt
Label key: Satisfied means cell viability under 90%; Not satisfied means cell viability of 90% or more.

Could you please tell me whether cell viability recorded for O=C(O)CSc1nnc(Br)n1-c1ccc(C2CC2)c2ccccc12 is less than 90%?
Not satisfied

---

Test system: MOLM14
ASSAY: cell viability relative to vehicle control; higher = less cytotoxic
CONDITION: 10 µM; SRSF2 genotype: SRSF2 wt/wt
Where a name gives a salt, the structure may show the parent alone.
Recorded cell viability values for a group of molecules are listed next.
Note: unit % is implicit; provide only the numeric part.

- MOLECULE: "COC1CCN(C(=O)c2cc(Cc3n[nH]c(=O)c4ccccc34)ccc2F)CC1"
  UNIT OF MEASURE: "%"
  cell viability: 34.7
- MOLECULE: "CCO[C@@H]1OC(=O)C[C@@H]1NC(=O)[C@@H]1CCCN1C(=O)[C@@H](NC(=O)c1ccc(N)c(Cl)c1)C(C)(C)C"
  UNIT OF MEASURE: "%"
  cell viability: 98.1

Return the recorded cell viability value; entry: O=C(O)c1cccnc1Nc1cccc(C(F)(F)F)c1
98.5

Return the recorded cell viability value; entry: CC1CCC2(O)C(C)(C)C3CCC2(C)C1C3 (configuration not stated)
89.5

Return the recorded cell viability value; entry: CC1(C)[C@@H](O[C@H]2O[C@H](C(=O)O)[C@@H](O)[C@H](O)[C@H]2O[C@@H]2O[C@H](C(=O)O)[C@@H](O)[C@H](O)[C@H]2O)CC[C@]2(C)[C@H]3C(=O)C=C4[C@@H]5C[C@@](C)(C(=O)O)CC[C@]5(C)CC[C@@]4(C)[C@]3(C)CC[C@@H]12 [Dipotassium glycyrrhizinate]
103

Return the recorded cell viability value; entry: Cc1cn([C@H]2C[C@H](O)[C@@H](CO)O2)c(=O)[nH]c1=O
99.7

Return the recorded cell viability value; entry: CCCN(CCc1cccs1)[C@H]1CCc2c(O)cccc2C1
101

Return the recorded cell viability value; entry: O=C(O)CCCc1c[nH]c2ccccc12
101

Return the recorded cell viability value; entry: Nc1ncn([C@@H]2O[C@H](CO)[C@@H](O)[C@H]2O)c(=O)n1
40.3

Return the recorded cell viability value; entry: N[C@@H]1CCCCN(c2c(F)cc3c(=O)c(C(=O)O)cn(C4CC4)c3c2Cl)C1 [Besifloxacin HCl (Besivance)]
98.3

Return the recorded cell viability value; entry: O=[N+]([O-])c1ccc2c(c1)S(=O)(=O)C=C2
0.25

Return the recorded cell viability value; entry: Cn1cc(/C=C/C(=O)c2cccc(F)c2)cc1/C=C/C(=O)NO
64.5

Return the recorded cell viability value; entry: CCCCCCCCCCCCCCCC(=O)OC [Methyl palmitate]
97.7

Return the recorded cell viability value; entry: O=C(O)C1=C(CSc2nnnn2CS(=O)(=O)O)CS[C@@H]2[C@H](NC(=O)[C@H](O)c3ccccc3)C(=O)N12 [Cefonicid sodium]
105

Return the recorded cell viability value; entry: NC(=O)c1[nH]cnc1N [4-Amino-5-imidazolecarboxamide]
108

Return the recorded cell viability value; entry: Cc1nc(N)sc1-c1ccnc(Nc2ccc(N3CCOCC3)cc2)n1
4.7

Return the recorded cell viability value; entry: COc1ccc(-c2cc(=O)c3c(O)c(OC)c(O)c(OC)c3o2)cc1
76.8

Return the recorded cell viability value; entry: OCCOc1ccc(/C(=C(/CCCl)c2ccccc2)c2ccccc2)cc1
99.9

Return the recorded cell viability value; entry: CNC(=O)Nc1ccc(-c2nc(N3CC4CCC(C3)O4)c3cnn(C4CCC5(CC4)OCCO5)c3n2)cc1
28.1

Return the recorded cell viability value; entry: COc1cc2c(Oc3ccc(NC(=O)C4(C(=O)Nc5ccc(F)cc5)CC4)cc3F)ccnc2cc1OCCCN1CCOCC1
0.34

Return the recorded cell viability value; entry: Fc1ccc(CNc2ncnc3ccc(F)cc23)cc1
59.4

Return the recorded cell viability value; entry: COc1ccnc(C[S+]([O-])c2nc3cc(OC(F)F)ccc3[nH]2)c1OC (configuration not stated)
112

---

Tested on: OCI-AML2
ASSAY: cell viability relative to vehicle control; higher = less cytotoxic
CONDITION: 10 µM; SRSF2 genotype: P95H/wt
Where a name gives a salt, the structure may show the parent alone.
Label key: met means cell viability under 90%; not met means cell viability of 90% or more.

Solved entries:
- COMPOUND: "CC(C)(Sc1cc(C(C)(C)C)c(O)c(C(C)(C)C)c1)Sc1cc(C(C)(C)C)c(O)c(C(C)(C)C)c1"
  TESTED ON: "OCI-AML2"
  ASSIGNED CLASS: "not met"
- COMPOUND: "CC(C)NCC(O)COc1cccc2ccccc12 (configuration not stated) [Propranolol HCl]"
  TESTED ON: "OCI-AML2"
  ASSIGNED CLASS: "met"
- COMPOUND: "CC1(C)OCCn2c1nc1c(N3CCOCC3)nc(-c3cnc(N)nc3)nc12"
  TESTED ON: "OCI-AML2"
  ASSIGNED CLASS: "met"
- COMPOUND: "C[C@H]1C[C@@H]2[C@H]([C@@H](O)C[C@@]3(C)[C@H]2CC[C@]3(O)C(=O)CO)[C@@]2(C)C=CC(=O)C=C12"
  TESTED ON: "OCI-AML2"
  ASSIGNED CLASS: "not met"
- COMPOUND: "CC(C)(O)C1CCC(C)(C2C(O)CC3(C)C4CC(O)C5C(C)(C)C(O)CCC56CC46CCC23C)O1 (configuration not stated)"
  TESTED ON: "OCI-AML2"
  ASSIGNED CLASS: "not met"

Could you please tell me whether cell viability recorded for CCC[C@@H]1C[C@@H](C(=O)N[C@@H]([C@H]2O[C@H](SC)[C@H](O)[C@@H](O)[C@H]2O)[C@@H](C)O)N(C)C1 [Lincomycin hydrochloride (Lincocin)] is less than 90%?
met

---

Tested on: OCI-AML2
ASSAY: cell viability relative to vehicle control; higher = less cytotoxic
CONDITION: 10 µM; SRSF2 genotype: wt/wt
ASSAY METRIC: cell viability (%)
Note: unit % is implicit; provide only the numeric part.

Reference set (2 entries):
- COMPOUND: "CCC(=O)OCC(=O)[C@@]1(OC(=O)CC)[C@@H](C)C[C@H]2[C@@H]3CCC4=CC(=O)C=C[C@]4(C)[C@@]3(F)[C@@H](O)C[C@@]21C [Betamethasone Dipropionate (Diprolene)]"
  cell viability, %: 120
- COMPOUND: "CCCOc1ccc2c(c1)CC[C@@H]1[C@@H]2CC[C@]2(C)[C@@H](OC)CC[C@@H]12 [Promestriene]"
  cell viability, %: 66.2

API: the following record is the query input.
Answer briefly: cell viability recorded on OCI-AML2 for COC(=O)[C@H](O)[C@@H](NC(=O)c1ccccc1)c1ccccc1
110

---

System: OCI-AML2
ASSAY: cell viability relative to vehicle control; higher = less cytotoxic
CONDITION: 10 µM; SRSF2 genotype: wt/wt
ASSAY METRIC: cell viability
Please make sure the unit comes right after the number.

- MOLECULE: "N#CC[C@H](C1CCCC1)n1cc(-c2ncnc3[nH]ccc23)cn1"
  ASSAY METRIC: "cell viability"
  ASSAY RESULT: "77.2%"
- MOLECULE: "CC(C)NC(=O)C1CCC(n2c(NC(=O)c3ccc(F)cc3)nc3ccc(CN4CCC(C(C)(C)O)CC4)cc32)CC1 (stereo not given)"
  ASSAY METRIC: "cell viability"
  ASSAY RESULT: "35.3%"
- MOLECULE: "COc1nc(C)nc(Cl)c1NC1=NCCN1"
  ASSAY METRIC: "cell viability"
  ASSAY RESULT: "89.6%"
- MOLECULE: "CN1CCCN(C(=O)c2cccc(-c3ccc(/C=C4/C(=O)Nc5ccc(Cl)cc54)o3)c2)CC1"
  ASSAY METRIC: "cell viability"
  ASSAY RESULT: "0.42%"

API: the following record is the query input.
Return the recorded cell viability value; entry: COc1cc2ncnc(Nc3cccc(Cl)c3F)c2cc1OC(=O)N1CCN(C)C[C@H]1C
75.7%

Sourced from the supplement of paper PMC10981050
